experimental target: Prostaglandin G/H synthase 2 (Homo sapiens, UniProt P35354)
Sequence (P35354 whole entry): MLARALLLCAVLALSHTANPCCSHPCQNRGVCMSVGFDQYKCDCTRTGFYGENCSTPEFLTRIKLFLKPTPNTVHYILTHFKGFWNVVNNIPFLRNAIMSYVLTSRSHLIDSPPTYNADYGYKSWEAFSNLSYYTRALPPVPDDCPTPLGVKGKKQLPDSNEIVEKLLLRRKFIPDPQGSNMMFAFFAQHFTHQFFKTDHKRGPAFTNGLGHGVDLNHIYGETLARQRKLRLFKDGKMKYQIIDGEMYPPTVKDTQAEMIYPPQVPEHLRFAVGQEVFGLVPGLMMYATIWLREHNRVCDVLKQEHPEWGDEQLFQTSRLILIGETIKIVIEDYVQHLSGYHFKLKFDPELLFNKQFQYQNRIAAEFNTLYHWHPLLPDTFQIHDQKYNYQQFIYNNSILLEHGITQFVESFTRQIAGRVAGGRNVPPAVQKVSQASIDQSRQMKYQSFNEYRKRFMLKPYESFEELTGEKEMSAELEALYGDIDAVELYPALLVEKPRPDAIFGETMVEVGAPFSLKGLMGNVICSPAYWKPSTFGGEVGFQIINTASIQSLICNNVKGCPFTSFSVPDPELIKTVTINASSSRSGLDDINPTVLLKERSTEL
procedure text: Inhibition of human recombinant COX2 by measuring PGE2
For each entry below, report its pIC50 value.
Friendly reminder that pIC50 comes from taking -log10 of the concentration in mol/L.

pIC50 for COc1ccc(C2=Cc3ccccc3C2)c(OC)c1OC is 5.88

pIC50 for COc1ccccc1C1=Cc2ccccc2C1 is 4.21

pIC50 for COc1ccc(C2=Cc3ccccc3CC2)c(OC)c1OC is 6.18

pIC50 for COc1ccc2c(c1)CCC(c1ccc(OC)c(OC)c1)=C2 is 7.52

###

For each entry below, report its Ratio IC50 value.
procedure text: Selectivity for ovine COX1 over human recombinant COX2
Lab note: jot the number down without any unit.

Ratio IC50 for COc1ccc2c(c1)CCC(c1ccc(OC)c(OC)c1)=C2 is 0.079

Ratio IC50 for COc1ccccc1C1=Cc2ccccc2C1 is 135

Ratio IC50 for COc1ccc(C2=Cc3ccccc3C2)c(OC)c1OC is 44.3

Ratio IC50 for COc1ccc(C2=Cc3ccccc3CC2)c(OC)c1OC is 1.38

Cited source for all entries: ChEMBL document CHEMBL1143748
